These measurements were taken from ChEMBL document CHEMBL5316357.

- experimental_details: Oral bioavailability in female Wistar Han rat at 30 mg/kg by LC-MS/MS analysis
- Format: ADME, organism-based
- protocol_conditions: in vivo
recorded_metric: bioavailability

[[record]]
compound = "CCOC(=O)C1=C(CN2CCN3C(=O)N(CC(C)(C)C(=O)O)C[C@@H]3C2)NC(c2nccs2)=N[C@H]1c1cccc(F)c1C [LINVENCORVIR]"
recorded_metric = "bioavailability"
data_value = "105%"


---

- experimental_details: Oral bioavailability in mouse plasma at 3 mg/kg
- Assay type: ADME, organism-based
- protocol_conditions: in vivo
recorded_metric: F

[[record]]
smiles_input = "CCOC(=O)C1=C(CN2CCN3C(=O)N(CC(C)(C)C(=O)O)C[C@@H]3C2)NC(c2nccs2)=N[C@H]1c1cccc(F)c1Cl"
recorded_metric = "F"
data_value = "33%"

[[record]]
smiles_input = "CCOC(=O)C1=C(CN2CCN3C(=O)N(CC(C)(C)C(=O)O)C[C@@H]3C2)NC(c2nccs2)=N[C@H]1c1cccc(F)c1C"
recorded_metric = "F"
data_value = "33%"

[[record]]
smiles_input = "CCOC(=O)C1=C(CN2C[C@H]3CN(C(C)(C)C)C(=O)N3C[C@@H]2C(=O)O)NC(c2nccs2)=N[C@H]1c1ccc(F)cc1Cl"
recorded_metric = "F"
data_value = "0.7%"

[[record]]
smiles_input = "CCOC(=O)C1=C(CN2CCN3C(=O)N(CC(C)(C)C(=O)O)C[C@@H]3C2)NC(c2nccs2)=N[C@H]1c1ccc(F)cc1Cl"
recorded_metric = "F"
data_value = "12%"

